All values here come from paper PMC9029089.

This listing pairs compounds with measured % Inhibition RORγ 5 μg/ml.
Target: RORγ (Mus musculus)
Construct: mRORγ (Pro-261-end); expressed in transfected cells
Sequence (P51450 261-516 limits assumed): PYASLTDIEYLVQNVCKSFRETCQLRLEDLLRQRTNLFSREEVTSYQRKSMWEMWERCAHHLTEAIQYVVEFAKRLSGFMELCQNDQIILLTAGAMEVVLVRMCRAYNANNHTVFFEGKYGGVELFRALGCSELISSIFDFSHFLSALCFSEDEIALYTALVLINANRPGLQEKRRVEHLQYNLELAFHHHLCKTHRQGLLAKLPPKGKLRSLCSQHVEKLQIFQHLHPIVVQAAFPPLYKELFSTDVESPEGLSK
Test: Gal4-RORγ-LBD UAS-luciferase reporter assay in TRex-CHO-K1 cells (doxycycline-stimulated)
Assay type: cell-based
Conditions: individual controls 1295.201-307, 5 μg/ml, triplicate
recorded_metric: % Inhibition RORγ 5 μg/ml (%)

{"compound": "O=C(Cc1ccccc1)NC1=NC[C@H](Cc2ccccc2)N1CCc1ccc(F)cc1 [1295.240]", "recorded_metric": "% Inhibition RORγ 5 μg/ml", "observed": 52.2}
{"compound": "O=C(Cc1ccccc1)NC1=NC[C@@H](CC2CCCCC2)N1CCc1ccccc1 [1295.224]", "recorded_metric": "% Inhibition RORγ 5 μg/ml", "observed": 9.6}
{"compound": "O=C(Cc1ccccc1)NC1=NC[C@H](Cc2ccccc2)N1CCc1cccc(Br)c1 [1295.239]", "recorded_metric": "% Inhibition RORγ 5 μg/ml", "observed": 47.8}
{"compound": "O=C(Cc1ccccc1)NC1=NC[C@H](Cc2ccccc2)N1CCc1ccccc1 [1295.202]", "recorded_metric": "% Inhibition RORγ 5 μg/ml", "observed": 0.0}
{"compound": "CCCCCCCN1C(NC(=O)Cc2ccccc2)=NC[C@@H]1Cc1ccccc1 [1295.254]", "recorded_metric": "% Inhibition RORγ 5 μg/ml", "observed": 48.4}
{"compound": "Cc1cccc(CCN2C(NC(=O)Cc3ccccc3)=NC[C@@H]2Cc2ccccc2)c1 [1295.237]", "recorded_metric": "% Inhibition RORγ 5 μg/ml", "observed": -4.8}
{"compound": "CCN1C(NC(=O)Cc2ccccc2)=NC[C@@H]1Cc1ccccc1 [1295.264]", "recorded_metric": "% Inhibition RORγ 5 μg/ml", "observed": 7.5}
{"compound": "CCC(C)C(=O)NC1=NCC(Cc2ccccc2)N1CCc1ccccc1 (mixture of isomers) [1295.296]", "recorded_metric": "% Inhibition RORγ 5 μg/ml", "observed": 41.7}
{"compound": "O=C(Cc1ccccc1)NC1=NC[C@H](Cc2ccc(O)cc2)N1CCc1ccccc1 [1295.207]", "recorded_metric": "% Inhibition RORγ 5 μg/ml", "observed": -85.0}
